biological target: D816V Kit (Homo sapiens (Human), UniProt P10721, D816V); experiment: Kit D816V assay at Km (Caliper electrophoretic mobility shift); type: biochemical; settings: D816V Kit versus wild-type Kit, enzyme assays at Km
Sequence (P10721 26-976 D816V): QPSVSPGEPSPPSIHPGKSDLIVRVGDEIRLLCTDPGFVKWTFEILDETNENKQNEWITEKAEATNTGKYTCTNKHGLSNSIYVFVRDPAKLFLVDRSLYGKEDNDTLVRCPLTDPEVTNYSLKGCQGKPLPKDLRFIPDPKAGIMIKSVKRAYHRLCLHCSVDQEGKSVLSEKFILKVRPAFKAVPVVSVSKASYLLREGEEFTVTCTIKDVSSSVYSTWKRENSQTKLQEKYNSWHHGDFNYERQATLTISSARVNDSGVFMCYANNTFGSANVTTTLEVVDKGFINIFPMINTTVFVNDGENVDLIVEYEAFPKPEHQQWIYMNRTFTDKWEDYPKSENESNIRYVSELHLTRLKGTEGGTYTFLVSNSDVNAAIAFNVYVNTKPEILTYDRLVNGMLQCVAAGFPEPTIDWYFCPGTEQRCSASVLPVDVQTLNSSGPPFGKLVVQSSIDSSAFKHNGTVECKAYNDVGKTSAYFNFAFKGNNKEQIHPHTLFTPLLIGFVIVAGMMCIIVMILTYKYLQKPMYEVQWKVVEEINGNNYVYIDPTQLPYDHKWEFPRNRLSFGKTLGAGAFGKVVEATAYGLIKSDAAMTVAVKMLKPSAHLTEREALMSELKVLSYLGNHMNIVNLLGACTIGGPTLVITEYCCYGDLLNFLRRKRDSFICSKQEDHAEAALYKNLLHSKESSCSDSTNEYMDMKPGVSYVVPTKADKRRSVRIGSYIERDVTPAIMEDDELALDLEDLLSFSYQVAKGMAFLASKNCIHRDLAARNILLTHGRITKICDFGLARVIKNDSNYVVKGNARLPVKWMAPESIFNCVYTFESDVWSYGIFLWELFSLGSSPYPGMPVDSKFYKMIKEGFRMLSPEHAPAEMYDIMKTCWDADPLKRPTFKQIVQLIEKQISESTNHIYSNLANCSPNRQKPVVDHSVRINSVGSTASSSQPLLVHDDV
outcomeMeasure: times more potent against the D816V mutant than against the wild-type Kit

• COc1cc2ncnc(N3CCN(c4ncc(Nc5ccc(C#N)cc5)cn4)CC3)c2cc1OC [Compound 47] = at least 100 times
• COc1ccc(COc2cnc(N3CCN(c4ncnc5cc(OC)c(OC)cc45)CC3)nc2)cc1 [Compound 77] = at least 100 times
• COc1cc2ncnc(N3CCN(c4ncc(Cc5ccccc5)cn4)CC3)c2cc1OC1CCN(CCO)CC1 [Compound 129] = less than 5 times
• COc1cc2ncnc(N3CCN(c4ncc(OCc5ccccc5)cn4)C[C@H]3C)c2cc1OC [Compound 67] = less than 5 times
• COc1cccc(Cc2cnc(N3CCN(c4ncnc5cc(OC)c(OC)cc45)CC3)nc2)c1 [Compound 57] = at least 100 times
• COc1cc2ncnc(N3CCN(c4ncc(Cc5ccccc5)cn4)C(C)C3)c2cc1OC (stereo not drawn) [Compound 23] = less than 5 times
• CCOc1cc2ncnc(N3CCN(c4ncc(Cc5ccccc5)c(=O)[nH]4)CC3)c2cc1OCC1CCN(C)CC1 [Compound 138] = less than 5 times
• COc1cc2ncnc(N3CCN(c4ncc(Cc5ccccc5)cn4)C[C@H]3C)c2cc1OC [Compound 28] = less than 5 times
• COc1cc2ncnc(N3CCN(c4ncc(OCc5ccc(C)cc5)cn4)CC3)c2cc1OC [Compound 62] = at least 100 times

---

biological target: wild type Kit (Homo sapiens (Human), UniProt P10721); assay: Kit wild type assay at Km (Caliper electrophoretic mobility shift); format: biochemical; conditions: wild type Kit 2 nM, 400 uM ATP (Km), 1 uM Srctide, 25 C, 90 minutes; read-out: INH-KITWT ENZ-KM IC50 (nM) (Num)
Sequence (P10721 26-976): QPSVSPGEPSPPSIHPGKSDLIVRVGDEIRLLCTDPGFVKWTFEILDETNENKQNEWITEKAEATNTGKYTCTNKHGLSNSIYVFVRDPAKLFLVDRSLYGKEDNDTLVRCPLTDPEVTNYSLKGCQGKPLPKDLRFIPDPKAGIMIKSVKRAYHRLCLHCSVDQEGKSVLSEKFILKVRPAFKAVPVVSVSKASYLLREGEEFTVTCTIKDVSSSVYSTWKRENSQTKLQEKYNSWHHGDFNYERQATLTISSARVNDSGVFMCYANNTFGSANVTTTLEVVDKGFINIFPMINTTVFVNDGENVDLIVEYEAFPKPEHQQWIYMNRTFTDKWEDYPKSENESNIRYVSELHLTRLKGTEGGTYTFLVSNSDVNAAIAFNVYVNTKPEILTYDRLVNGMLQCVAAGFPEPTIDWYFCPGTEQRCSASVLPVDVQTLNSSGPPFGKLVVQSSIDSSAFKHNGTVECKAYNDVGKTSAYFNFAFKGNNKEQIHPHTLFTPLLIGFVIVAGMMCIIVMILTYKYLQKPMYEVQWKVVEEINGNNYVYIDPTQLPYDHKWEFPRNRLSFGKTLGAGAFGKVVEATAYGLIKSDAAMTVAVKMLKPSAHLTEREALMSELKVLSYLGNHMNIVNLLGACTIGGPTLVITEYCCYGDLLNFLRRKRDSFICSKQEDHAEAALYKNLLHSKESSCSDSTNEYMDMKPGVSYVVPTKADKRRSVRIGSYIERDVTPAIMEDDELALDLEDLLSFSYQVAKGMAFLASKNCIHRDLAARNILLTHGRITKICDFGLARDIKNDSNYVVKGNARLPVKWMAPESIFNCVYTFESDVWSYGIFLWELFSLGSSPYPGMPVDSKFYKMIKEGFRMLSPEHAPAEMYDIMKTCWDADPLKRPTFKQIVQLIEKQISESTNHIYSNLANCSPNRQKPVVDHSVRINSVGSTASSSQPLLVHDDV
Recorded IC50 by entry
outcomeMeasure: IC50

• COc1cc2c(N3CCN(c4ncc(Cc5ccccc5)cn4)CC3)ncnc2cc1OCCN1CCCC1=O = 11 to 100 nM
• COc1cc2ncnc(N3CCN(c4ncc(Nc5ccccc5)cn4)[C@H](C)C3)c2cc1OC = 100 to 1000 nM
• COc1cc2c(N3CCN(c4ncc(Br)cn4)CC3)ncnc2cc1OCCCN1CCCC1 = 100 to 1000 nM
• COc1cc2ncnc(N3CCN(c4ncc(Nc5ccc(C#N)cc5)cn4)CC3)c2cc1OC = > 1000 nM
• COc1cc2ncnc(N3CCN(c4ncc(Cc5ccccc5)cn4)CC3)c2cc1OCCN1CCCC1=O = 11 to 100 nM

---

target: wild type Kit (Homo sapiens (Human), UniProt P10721); test: Kit wild type assay at Km (Caliper electrophoretic mobility shift); type: biochemical; settings: wild type Kit 2 nM, 400 uM ATP (Km), 1 uM Srctide, 25 C, 90 minutes; read-out: INH-KITWT ENZ-KM IC50 (nM) (Num)
outcomeMeasure: IC50

* COc1cc2ncnc(N3CCN(c4ncc(Oc5ccccc5)cn4)CC3)c2cc1OC [Compound 14] | 11 to 100 nM
* COc1cc2ncnc(N3CCN(c4ncc(Cc5ccccc5)c(=O)[nH]4)CC3)c2cc1OCC1CNCCO1 (centres unmarked) [Compound 119] | < 10 nM
* COc1cc2ncnc(N3CCN(c4ncc(NCc5ccccc5C)cn4)CC3)c2cc1OC [Compound 54] | 100 to 1000 nM
* COc1cc2ncnc(N3CCN(c4ncc(Nc5ccccn5)cn4)CC3)c2cc1OC [Compound 15] | 100 to 1000 nM
* COc1cc2ncnc(N3CCN(c4ncc(Cc5ccc(C(F)(F)F)cc5)cn4)CC3)c2cc1OC [Compound 88] | 100 to 1000 nM
* COc1cc2ncnc(N3CCN(c4ncc(Nc5ccc(C)cc5)cn4)CC3)c2cc1OC [Compound 31] | 100 to 1000 nM
* COc1cc2ncnc(N3CCN(c4ncc(Cc5ccc(C)cc5)cn4)C(=O)C3)c2cc1OC [Compound 22] | 11 to 100 nM
* COc1cc2c(N3CCN(c4ncc(Cc5ccccc5)cn4)CC3)ncnc2cc1OCCCN1CCCCC1 [Compound 123] | 100 to 1000 nM
* COc1cc2ncnc(N3CCN(c4ncc(Cc5ccccc5)c(=O)[nH]4)CC3)c2cc1OC[C@H]1CNCCO1 [Compound 120] | < 10 nM
* COc1cc2ncnc(N3CCN(c4ncc(Cc5ccccc5)cn4)CC3)c2cc1OC1CCN(C)C1 (centres unmarked) [Compound 92] | 100 to 1000 nM
* COc1cc2ncnc(N3CCN(c4ncc(Cc5ccccc5)cn4)CC3)c2cc1OC1CCNC1 (centres unmarked) [Compound 80] | 11 to 100 nM
* COc1cc2c(N3CCN(c4ncc(Cc5ccccc5)cn4)CC3)ncnc2cc1OCCCN1CCN(C)CC1 [Compound 134] | < 10 nM
* COc1cc2ncnc(N3CCN(c4ncc(Nc5ccccc5C)cn4)CC3)c2cc1OC [Compound 32] | 100 to 1000 nM
* COc1ccc(Cc2cnc(N3CCN(c4ncnc5cc(OC)c(OC)cc45)CC3)nc2)cc1 [Compound 58] | 11 to 100 nM
* COc1cc2ncnc(N3CCN(c4ncc(OCc5ccc(F)cc5)cn4)CC3)c2cc1OC [Compound 69] | 100 to 1000 nM
* COc1cc2ncnc(N3CCN(c4ncc(OCC5CCCC5)cn4)CC3)c2cc1OC [Compound 18] | > 1000 nM
* COc1cc2ncnc(N3CCN(c4ncc(Cc5ccccc5C)cn4)CC3)c2cc1OC [Compound 25] | 100 to 1000 nM
* COc1cc2ncnc(N3CCN(c4ncc(Cc5ccccc5)cn4)CC3)c2cc1OCCN1CCN(C)CC1 [Compound 126] | 11 to 100 nM
* COc1cc2ncnc(N3CCN(c4ncc(Nc5ccncc5)cn4)CC3)c2cc1OC [Compound 17] | > 1000 nM
* COc1cc2ncnc(N3CCN(c4ncc(Cc5ccccc5)cn4)CC3)c2cc1OC1CCN(CCO)C1 (centres unmarked) [Compound 118] | 11 to 100 nM
* COc1cc2ncnc(N3CCN(c4ncc(Cc5ccccc5)cn4)CC3)c2cc1OCC(O)CO (centres unmarked) [Compound 84] | 11 to 100 nM
* COc1cc2ncnc(N3CCN(c4ncc(Cc5ccccc5)c(O)n4)CC3)c2cc1OC [Compound 35] | < 10 nM
* COc1cccc(Cc2cnc(N3CCN(c4ncnc5cc(OC)c(OC)cc45)CC3)nc2)c1 [Compound 57] | 11 to 100 nM
* COc1cc2ncnc(N3CCN(c4ncc(OCc5cccc(C)c5)cn4)CC3)c2cc1OC [Compound 61] | 100 to 1000 nM
* COc1cc2ncnc(N3CCN(c4ncc(OCc5ccc(C(C)(C)C)cc5)cn4)CC3)c2cc1OC [Compound 94] | > 1000 nM
* COc1cc2ncnc(N3CCN(c4ncc(OCc5cc(Cl)cc(Cl)c5)cn4)CC3)c2cc1OC [Compound 103] | > 1000 nM
* COc1cc2ncnc(N3CCN(c4ncc(Sc5ccccc5)cn4)CC3)c2cc1OC [Compound 40] | 100 to 1000 nM
* COc1cc2ncnc(N3CCN(c4ncc(Cc5ccccc5)cn4)CC3)c2cc1OCC1CCN(C)CC1 [Compound 112] | 11 to 100 nM
* COc1cc2ncnc(N3CCN(c4ncc(Cc5ccccc5)c(=O)[nH]4)CC3)c2cc1OC[C@@H]1CCCN(C)C1 [Compound 128] | 11 to 100 nM
* COc1ccc2ncnc(N3CCN(c4ncc(Cc5ccccc5)cn4)[C@H](C)C3)c2c1 [Compound 7] | 100 to 1000 nM
* COc1cc2ncnc(N3CCN(c4ncc(Cc5cccc(C(N)=O)c5)cn4)CC3)c2cc1OC [Compound 75] | 100 to 1000 nM
* COc1cc2ncnc(N3CCN(c4ncc(O[C@H](C)c5ccccc5)cn4)CC3)c2cc1OC [Compound 59] | 100 to 1000 nM

The values you see were collected from patent US9994552B2.
